Data provenance: patent US20220315647A1

target: native Protein A ligand of MabSelect™ Xtra resin (Staphylococcus, UniProt P38507 42-327); assay: affinity chromatography, lysate applied to MabSelect Xtra column
measureName: binding result

VHH-EgA1 (T57K, K64R) (VHH) VHH: AQVDQLQESGGGLVQPGGSLRLSCAASGRTFSSYAMGWFRQAPGKQREFVAAIRWSGGYKYYTDSVRGRFTISRDNAKTTVYLQMNSLKPEDTAVYYCAATYLSSDYSRYALPQRPLDYDYWGQGTQVTVSSLEHHHHHH	binds
